# Tested on: Glutamate receptor ionotropic, NMDA 3A (GRIN3A) ligand-binding domain
# protocol.text: binders of NR3A ligand-binding domain, primary screen, biophysical, differential scanning fluorimetry, uHTS (AID 1259313)
# condition: NR3A LBD differential scanning fluorimetry, at 25 µM, stronger effect = higher value, 0% = protein alone, 100% = glycine-bound protein
The campaign covered roughly 340,000 compounds. About 8,500 (2.5%) were called active. This excerpt belongs to a sample that is enriched for actives.
property.measured: Tm shift relative to glycine control (%)
Give the quantity in %, number only.

As a guide, the following entries are already answered.
CCOC(=O)c1nn(-c2ccccc2F)c2nc(Nc3ccccc3)cc(=O)n12: 0.55
CN(C)CCNc1ccc(-c2n[nH]c(=O)c3ccccc23)cc1[N+](=O)[O-]: -4.51
O=C(c1ccc(F)cc1)N1CCC(n2nnc3ccccc32)CC1: 3.22
O=C(Nc1ccc(N2CCOCC2)cc1)c1cccc(S(=O)(=O)N2CCOCC2)c1: 1.57
O=C(CN1CCN(S(=O)(=O)c2ccc(Br)cc2)CC1)Nc1ccccc1C(=O)c1ccccc1: -0.96
O=C(Nc1ccc(OC(F)(F)F)cc1)c1ccc2c(c1)no[n+]2[O-]: -3.76
CCOC(=O)CCP(=O)(O)C(O)(c1ccccc1)c1ccccc1: -1.33
CCOC(=O)C1(Cc2cccc(OC)c2)CCCN(S(=O)(=O)c2cccnc2)C1 (configuration not stated): 0.32

Find the recorded Tm shift relative to glycine control belonging to Cc1ccc(-n2cc3ccc([N+](=O)[O-])cc3n2)cc1 and report it.
13.3

Item: COc1ccc(/C=C/C(=O)OCC(=O)NCc2cccs2)cc1OC
0.79

Item: CCN1C(=O)C(=O)N(CC(=O)Nc2cc(C)ccc2C)C1=O
1.68

* * *

# System: Glutamate receptor ionotropic, NMDA 3A (GRIN3A) ligand-binding domain
# protocol.text: binders of NR3A ligand-binding domain, primary screen, biophysical, differential scanning fluorimetry, uHTS (AID 1259313)
# condition: NR3A LBD differential scanning fluorimetry, at 25 µM, stronger effect = higher value, 0% = protein alone, 100% = glycine-bound protein
Out of some 340,000 compounds screened, about 8,500 (2.5%) were called active. The entries come from a sample that favours actives as a whole.
property.measured: Tm shift relative to glycine control (%)
Give the quantity in %, number only.

As a guide, the following entries are already answered.
Nc1ccccc1/C=N\N=C/c1ccccc1N: 10.2
CN1CCN(c2ccccc2NC(=O)COc2ccc(C3CCCCC3)cc2)CC1: 2.39
O=C(CSc1nc(O)c(Cc2ccccc2)c(=O)[nH]1)Nc1nc2c(s1)CCCC2: 0.31
O=C(Nc1c(Cl)cccc1Cl)C1CCC1: 12.7
O=[N+]([O-])c1cccc(C=NN=Cc2ccccc2O)c1: -1.4
Oc1ccc2nc(Cc3ccccc3)[nH]c2c1: -5.45
NC(=O)Nc1ccccc1C(=O)NCCc1ccccc1: -3.04
O=C(Nc1cccc(Cl)c1)c1cncn1-c1ccc(F)cc1: -0.7
COc1ccc(OC)c(S(=O)(=O)N2CCCC(C(=O)NCCc3ccccc3)C2)c1 (configuration not stated): 0.67
O=C(/C(=C/c1cccc(Cl)c1)c1nc2ccccc2[nH]1)c1ccccc1: 23

Find the recorded Tm shift relative to glycine control belonging to N#C/C(=C(/O)COC(=O)COc1ccc(Cl)cc1)c1nc2ccccc2[nH]1 and report it.
7.42

Item: NC(=S)Nc1c(Cl)cccc1Cl
2.25
